# target-desc: Retinoic acid receptor RXR-alpha (Homo sapiens)
# method-notes: OT_NURR1_NURR1RXRa_1440: Odyssey Thera (OT) 24-hour HEK293T Protein Complementation Assay for Nurr1/retinoid X receptor (RXR) (AID 2283386)
Results filed as inconclusive are left out. Active and inactive are the calls of the source. How the source made its calls: active means hit-call score of the fitted dose curve at least 0.9, where 1 is the maximum; inconclusive means response in the unintended direction; inactive means score below 0.9.
reported-endpoint: outcome

The cases that follow already have their outcome on record.
chemical-smiles	measurement
COC(N)=O	inactive
O=C(CBr)OCc1ccccc1	inactive
Cc1ccc([N+](=O)[O-])cc1C	inactive
CC(C)(C)OOC(C)(C)C	inactive
CCCCN(CCCC)N=O	inactive

**Q:** Would you kindly share the measured outcome for CCNc1nc(Cl)nc(NC(C)(C)C)n1 ?
**A:** inactive

**Q:** Would you kindly share the measured outcome for Cc1ccc(O)cc1C ?
**A:** inactive

**Q:** Would you kindly share the measured outcome for O=[N+]([O-])c1ccccc1 ?
**A:** inactive

**Q:** Would you kindly share the measured outcome for Nc1ccc2ccccc2c1 ?
**A:** inactive

----------
# method-notes: ATG_AP_1_CIS: Attagene CIS-FACTORIAL HepG2 Assay for human Activator Protein 1 (AP-1) (AID 2282931)
# condition-notes: HepG2 Attagene cis-factorial AP-1 reporter mRNA; actives raise or lower the signal
Activity calls are given as the source filed them. How the source made its calls: active means hit-call score of the fitted dose curve at least 0.9, where 1 is the maximum; inactive means score below 0.9.
Form entry, call: pick from active, inactive

**Q:** Please indicate how the test categorized CNC(=O)Oc1ccc(N(C)C)c(C)c1 .
**A:** inactive

**Q:** Please indicate how the test categorized O=C(O)C(F)(F)OC(F)(F)C(F)(F)OC(F)(F)C(=O)O .
**A:** inactive

**Q:** Please indicate how the test categorized CC(C)(C)OOC(C)(C)C .
**A:** inactive

**Q:** Please indicate how the test categorized OCC(F)(F)OC(F)(F)C(F)(F)OC(F)(F)C(F)(F)OC(F)(F)CO .
**A:** inactive

**Q:** Please indicate how the test categorized COCCOCCO .
**A:** inactive

**Q:** Please indicate how the test categorized O=C(O)C(F)(OC(F)(F)C(F)(F)C(F)(F)F)C(F)(F)F (stereo not given) .
**A:** inactive

**Q:** Please indicate how the test categorized O=P(OCC(Br)CBr)(OCC(Br)CBr)OCC(Br)CBr (stereo not given) .
**A:** active

**Q:** Please indicate how the test categorized CCOP(=S)(NC(C)C)Oc1ccccc1C(=O)OC(C)C (stereo not given) .
**A:** inactive

**Q:** Please indicate how the test categorized CCCCN(CC)C(=O)SCCC .
**A:** inactive

**Q:** Please indicate how the test categorized Cc1cc(C)c(C(=O)P(=O)(c2ccccc2)c2ccccc2)c(C)c1 .
**A:** inactive

**Q:** Please indicate how the test categorized COC(N)=O .
**A:** inactive

**Q:** Please indicate how the test categorized CN(C)C(=O)Cl .
**A:** inactive

**Q:** Please indicate how the test categorized O=C(O)C(F)(F)OC(F)(F)C(F)(F)OC(F)(F)F .
**A:** inactive

**Q:** Please indicate how the test categorized CCNc1nc(Cl)nc(NC(C)(C)C)n1 .
**A:** inactive

**Q:** Please indicate how the test categorized CCC(C)(C)c1ccc(O)cc1 .
**A:** active

**Q:** Please indicate how the test categorized CCCCOCC1CO1 (stereo not given) .
**A:** inactive

**Q:** Please indicate how the test categorized CCCCc1ccccc1 .
**A:** inactive

**Q:** Please indicate how the test categorized N#Cc1ccc(O)cc1 .
**A:** inactive

**Q:** Please indicate how the test categorized ClC1=C(Cl)C2(Cl)C3C(Cl)C(Cl)CC3C1(Cl)C2(Cl)Cl (stereo not given) .
**A:** active

**Q:** Please indicate how the test categorized [N-]=[N+]=[N-] .
**A:** inactive

**Q:** Please indicate how the test categorized CCCCCCCc1ccc(O)cc1 .
**A:** inactive

**Q:** Please indicate how the test categorized NNC(N)=S .
**A:** inactive

**Q:** Please indicate how the test categorized c1ccc2c(c1)Nc1ccccc1S2 .
**A:** inactive

**Q:** Please indicate how the test categorized CCOC(=O)c1ccccc1N .
**A:** inactive

**Q:** Please indicate how the test categorized CCCCN(CCCC)N=O .
**A:** inactive
